So I've got a bunch of compounds here, and I need their log10(IC50) values.
- Experimental Target: human KHK-C (Homo sapiens (Human), UniProt P50053)
- Assay Method Text: KHK Biochemical Assay (IC50), ADP-Glo, KHK-C
- Test Parameters: ADP-Glo; average of at least two separate assays
// units: nM (pre-log); metric: IC50; scale: log10

The following compounds have reported results that may help.
[[record]]
compound = "C[C@H]1CCN1c1nc2c(c(-c3cccc(C(=O)NC4(C(=O)O)CC4)c3)n1)CCC2"
recorded_result = 2.15

[[record]]
compound = "Cc1cc(-c2nc(N3CC[C@@H]3C)nc3c2CCC3)ccc1C(=O)N(C)C"
recorded_result = 2.21

[[record]]
compound = "C[C@H]1[C@H](F)CN1c1nc2c(c(-c3ccc(CN)cc3)n1)CCC2"
recorded_result = 0.23


Would you mind giving log10(IC50) for every compound in the list below?
1. C[C@H]1CCN1c1nc2c(c(-c3cccc(C(N)C(F)(F)F)c3)n1)CCC2 (some centres unmarked)
2. COc1ccc(-c2nc(N3C[C@@H](O)[C@@H]3C)nc3c2CCC3(F)F)cc1S(=N)(=O)C(F)F (some centres unmarked)

Result ::
[2.21, 0.76]

* * *

- Experimental Target: human KHK-A (Homo sapiens (Human), UniProt P50053)
- Sequence (P50053 other isoform, or with tags, fused parts or gaps): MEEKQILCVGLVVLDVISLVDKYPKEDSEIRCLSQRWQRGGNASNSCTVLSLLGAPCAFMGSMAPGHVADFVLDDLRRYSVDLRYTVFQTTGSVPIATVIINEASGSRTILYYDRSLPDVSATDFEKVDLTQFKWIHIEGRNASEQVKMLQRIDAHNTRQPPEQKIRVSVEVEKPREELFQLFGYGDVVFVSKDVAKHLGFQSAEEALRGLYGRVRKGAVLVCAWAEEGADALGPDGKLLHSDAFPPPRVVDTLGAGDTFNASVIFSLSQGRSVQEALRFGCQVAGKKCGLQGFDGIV
- Assay Method Text: KHK Biochemical Assay (IC50), ADP-Glo, KHK-A
- Test Parameters: average of at least two separate assays
Observable: pIC50
Numbers only, as −log10 of the molar value.

[[record]]
compound = "C[C@H]1CCN1c1nc2c(c(-c3cccc([C@H]4C[C@@H]4C#N)c3)n1)CCC2 (stereo in doubt)"
recorded_result = 6.34

[[record]]
compound = "C[C@H]1CCN1c1nc2c(c(-c3ccc4c(=O)[nH]c(=O)[nH]c4c3)n1)CCC2"
recorded_result = 7.75


Lab note: next compound to report on.
Query :: Given `COc1ccc(-c2nc(N3C[C@@H](F)[C@@H]3C)nc3c2CCC3(F)F)cc1[S@@](C)(=N)=O` , state its recorded pIC50.
Result :: 9.70

* * *

- Assay Method Text: pKa analysis by capillary electrophoresis (pKa PRO Analyzer, co-solvent method)
- Assay type: physicochemical
- Test Parameters: co-solvent method (60% to 30% methanol buffers), pH range 1.7-11.2
Observable: 1st pKa

The following compounds have reported results that may help.
[[record]]
compound = "C[C@H]1[C@H](F)CN1c1nc(-c2ccc(C3(N)CS(=N)(=O)C3)cc2)c2c(n1)C(F)(F)CC2 (stereo partly shown) [Example 796]"
recorded_result = 4.8

[[record]]
compound = "C[C@H]1[C@H](F)CN1c1nc(-c2ccc([C@@H](N)CS(C)(=O)=O)cc2)c2c(n1)C(F)(F)CC2 (single isomer, unassigned) [Example 789]"
recorded_result = 6.4

[[record]]
compound = "C[C@H]1[C@H](F)CN1c1nc(-c2ccc([C@]3(N)C[S@@](=N)(=O)C3)cc2)c2c(n1)C(F)(F)CC2 [Example 797]"
recorded_result = 4.7


Lab note: next compound to report on.
Query :: Given C[C@H]1[C@H](O)CN1c1nc(-c2ccc([C@@]3(N)CCS(=O)(=O)C3)cc2)c2c(n1)C(F)(F)CC2 (single isomer, unassigned) [Example 794] , state its recorded 1st pKa.
Result :: 4.9

* * *

- Experimental Target: KHK-C expressed in NRK-52E cells (Homo sapiens (Human))
- Assay Method Text: KHK-C Cell-based Assay (EC50), NRK CTG, fructose-mediated ATP-depletion
So I've got a bunch of compounds here, and I need their pEC50 values.
One number for each entry, as −log10 of the molar value.

The following compounds have reported results that may help.
[[record]]
compound = "COc1ccc(-c2nc(N3CC[C@@H]3C(F)(F)F)nc3c2CCC3(F)F)cc1[S@@](C)(=N)=O"
experimental_target = "KHK-C expressed in NRK-52E cells (Homo sapiens (Human))"
observable = "pEC50"
recorded_result = 8.25

[[record]]
compound = "C[C@H]1[C@H](F)CN1c1nc2c(c(-c3cccc(NS(C)(=O)=O)c3)n1)CCC2"
experimental_target = "KHK-C expressed in NRK-52E cells (Homo sapiens (Human))"
observable = "pEC50"
recorded_result = 7.15

[[record]]
compound = "C[C@H]1CCN1c1nc2c(c(-c3ccc4c(c3)CC3C(C(=O)O)C43)n1)CCC2 (some centres unmarked)"
experimental_target = "KHK-C expressed in NRK-52E cells (Homo sapiens (Human))"
observable = "pEC50"
recorded_result = 5.61

[[record]]
compound = "COc1cc(-c2nc(N3C[C@@H](O)[C@@H]3C)nc3c2CCC3(F)F)ccc1C(N)=O"
experimental_target = "KHK-C expressed in NRK-52E cells (Homo sapiens (Human))"
observable = "pEC50"
recorded_result = 7.05

[[record]]
compound = "C[C@H]1CCN1c1nc2c(c(-c3cccc(CN4CCC4)c3)n1)CCC2"
experimental_target = "KHK-C expressed in NRK-52E cells (Homo sapiens (Human))"
observable = "pEC50"
recorded_result = 7.77


Would you mind giving pEC50 for every compound in the list below?
1. CNC(=O)c1ccc(-c2nc(N3C[C@@H](O)[C@@H]3C)nc3c2CCC3(F)F)cc1
2. C[C@H]1CCN1c1nc2c(c(-c3cccc(CC(N)=O)c3)n1)CCC2
3. C[C@H]1[C@H](O)CN1c1nc2c(c(-c3ccc(C(N)=O)cc3)n1)CCC2
4. C[C@H]1[C@H](O)CN1c1nc(-c2ccc(C(N)=O)c(OC(F)F)c2)c2c(n1)C(F)(F)CC2
5. C[C@H]1CCN1c1nc(-c2ccc(C3(N)CC(F)(F)C3)cc2)c2c(n1)C(F)(F)CC2
6. C[C@H]1CCN1c1nc2c(c(-c3ccc4c(c3)[C@]3(C[C@H]3C(N)=O)C(=O)N4)n1)CCC2 (mixture of isomers)
7. C[C@H]1CCN1c1nc2c(c(-c3ccc4[nH]nnc4c3)n1)CCC2
8. C[C@H]1[C@H](O)CN1c1nc(-c2ccc3c(c2)S(=O)(=O)NC3)c2c(n1)C(F)(F)CC2

Result ::
1. 6.78
2. 6.99
3. 6.42
4. 6.81
5. 8.15
6. 6.39
7. 6.56
8. 7.80

* * *

- Experimental Target: human KHK-C (Homo sapiens (Human), UniProt P50053)
- Assay Method Text: KHK Biochemical Assay (IC50), ADP-Glo, KHK-C
- Test Parameters: ADP-Glo; average of at least two separate assays
So I've got a bunch of compounds here, and I need their IC50 values.

The following compounds have reported results that may help.
[[record]]
compound = "C[C@H]1CCN1c1nc2c(c(-c3cc(F)c(C(N)=O)c(F)c3)n1)CCC2"
experimental_target = "human KHK-C (Homo sapiens (Human), UniProt P50053)"
recorded_result = "0.034 µM"

[[record]]
compound = "C[C@H]1CCN1c1nc2c(c(-c3cccc(NS(C)(=O)=O)c3)n1)CCC2"
experimental_target = "human KHK-C (Homo sapiens (Human), UniProt P50053)"
recorded_result = "0.0227 µM"

[[record]]
compound = "C[C@H]1CCN1c1nc2c(c(-c3cccc(C(=O)N[C@H]4CC[C@@H]4O)c3)n1)CCC2 (racemic)"
experimental_target = "human KHK-C (Homo sapiens (Human), UniProt P50053)"
recorded_result = "0.171 µM"


Lab note: next compound to report on.
Query :: Quick check: IC50 on human KHK-C (Homo sapiens (Human), UniProt P50053), item c1ccc(-c2nc(C3CC4CCC3C4)nc3c2CCC3)cc1 (stereo not shown) ?
Result :: > 5 µM

* * *

So I've got a bunch of compounds here, and I need their EC50 values.
- Experimental Target: KHK-C expressed in NRK-52E cells (Homo sapiens (Human), UniProt P50053)
- Sequence (P50053 whole entry): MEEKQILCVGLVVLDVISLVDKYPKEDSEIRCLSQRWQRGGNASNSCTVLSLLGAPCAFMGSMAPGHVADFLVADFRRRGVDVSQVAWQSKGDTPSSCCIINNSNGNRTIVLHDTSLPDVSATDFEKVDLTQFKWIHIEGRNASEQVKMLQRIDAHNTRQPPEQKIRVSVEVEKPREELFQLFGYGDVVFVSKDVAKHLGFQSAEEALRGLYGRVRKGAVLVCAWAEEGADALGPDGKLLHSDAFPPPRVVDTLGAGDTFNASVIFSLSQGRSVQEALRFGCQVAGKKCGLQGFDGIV
- Assay Method Text: KHK-C Cell-based Assay (EC50), NRK CTG, fructose-mediated ATP-depletion
Answers are plain numbers, in nM.

The following compounds have reported results that may help.
[[record]]
compound = "C[C@H]1[C@H](O)CN1c1nc(-c2ccc3c(c2)OCC32NC(=O)N(C)C2=O)c2c(n1)C(F)(F)CC2 (some centres unmarked) [Example 819]"
experimental_target = "KHK-C expressed in NRK-52E cells (Homo sapiens (Human), UniProt P50053)"
units_text = "nM"
recorded_result = 2

[[record]]
compound = "CC(=O)Nc1cc(-c2nc(N3C[C@@H](O)[C@@H]3C)nc3c2CCC3(F)F)ccc1C(N)=O [Example 181]"
experimental_target = "KHK-C expressed in NRK-52E cells (Homo sapiens (Human), UniProt P50053)"
units_text = "nM"
recorded_result = 579


Would you mind giving EC50 for every compound in the list below?
1. NC1(c2ccc(-c3nc(N4CC[C@@H]4C(F)F)nc4c3CCC4(F)F)cc2)COC1 (single isomer, unassigned) [Example 687]
2. C[C@H]1CCN1c1nc(-c2ccc3c(c2)OC[C@@H]3NS(C)(=O)=O)c2c(n1)C(F)(F)CC2 [Example 528]
3. C[C@H]1CCN1c1nc2c(c(-c3ccc4[nH]c(N)nc4c3)n1)CCC2 [Example 731]
4. Cc1ccc(-c2nc(N3CC[C@@H]3C)nc3c2CCC3)cc1C(N)=O [Example 27]

Result ::
1: 6.2; 2: 3.4; 3: 250; 4: 229

Would you mind giving EC50 for every compound in the list below?
1. C[C@H]1CCN1c1nc2c(c(-c3ccc4c(=O)[nH]ccc4c3)n1)CCC2 [Example 364]
2. C[C@H]1[C@H](O)CN1c1nc(-c2cc3c(c(S(N)(=O)=O)c2)OCC3)c2c(n1)C(F)(F)CC2 [Example 351]

Result ::
1. 13.1
2. 97.2

Values compiled from patent US12410160B2.
